# Test system: SNB-19 CNS
# protocol: NCI tumour cell line growth inhibition, 48 h
reported-property: TGI

In [3]: df
Out[3]:
                                    molecule  reported_property  reported_value
 0      Ic1ccc(-n2nnnc2-c2cnoc2-c2ccccc2)cc1                TGI        > 100 µM
 1  COc1ccc(-c2nc(SCC(=O)N/N=C/c3ccc(O)c(OC)c3)[nH]c2-c2ccc(OC)cc2)cc1                TGI        > 100 µM
 2  Cn1cc(C2=C(c3cn(C)c4cc(C(N)=O)ccc34)C(=O)NC2=O)c2ccccc21                TGI         > 25 µM
 3  O=c1c2c(-c3ccccc3)onc2n(-c2ccccc2)c(=O)n1-c1ccccc1                TGI        > 100 µM
 4             COC(=O)CN(C)P(=O)(N1CC1)N1CC1                TGI        > 100 µM
 5             N#C/C(N)=C(\C#N)NC=NCc1ccccc1                TGI        > 100 µM
 6         O=c1cc(-c2ccccc2)[nH]c2c(S)cccc12                TGI        > 100 µM
 7     O=C(c1ccc(Cl)cc1)c1cnc(Nc2ccccc2Cl)s1                TGI         51.3 µM
 8  Cc1ccc(-c2c3c(n(C4OC(CO)C(O)C(O)C4O)c(=S)c2C#N)CC(C)(C)CC3=O)cc1 (stereo unspecified)                TGI        > 100 µM
 9      O=C1/C(=C/c2ccccc2)NC(=S)N1CN1CCOCC1                TGI        > 100 µM
10  Cc1cc(C)nc(NS(=O)(=O)c2ccc(NNC(=O)c3cccc4c(=O)c5ccccc5[nH]c34)cc2)n1                TGI        > 100 µM

---

# GI50 annotations
# Test system: TK-10 renal
# protocol: NCI tumour cell line growth inhibition, 48 h
reported-property: GI50

>>> print(df.to_string())
                                    molecule  system_under_test  reported_value
 0  Cc1csc(Nc2nc(-c3cccc(Br)c3)nc(C(Cl)(Cl)Cl)n2)n1        TK-10 renal         2.25 µM
 1  COc1ccccc1N1CCN(CCCn2c(=O)c3c(OC)nc(C)cc3c(=O)n2-c2ccccc2)CC1        TK-10 renal        > 100 µM
 2  O=c1[nH]c(=O)n(C2CC(O)C(CO)O2)cc1CO (stereo unspecified)        TK-10 renal        > 100 µM
 3  Cn1cc(C2=C(c3cn(C)c4cc(C(N)=O)ccc34)C(=O)NC2=O)c2ccccc21        TK-10 renal         3.76 µM
 4  NS(=O)(=O)c1ccc(N(/C=C/C(=O)C(F)(F)F)CC(=O)c2ccc(Cl)cc2)cc1        TK-10 renal         29.7 µM
 5  Nc1nccc2c1ccn2-c1ccc(NC(=O)c2ccc(N3CCOCC3)c(C(F)(F)F)c2)cc1        TK-10 renal         1.52 µM
 6      Ic1ccc(-n2nnnc2-c2cnoc2-c2ccccc2)cc1        TK-10 renal         41.5 µM
 7    CCN(CC)c1nc(-c2ccc(Cl)cc2Cl)nc2ccccc12        TK-10 renal         23.8 µM
 8  Nc1c(C(=O)Nc2cccc(Br)c2)sc2nc3c(cc12)C(=O)CCC3        TK-10 renal         13.9 µM
 9  CCCn1c(N)c(C(=O)N/N=C(/C)c2cc3cccc(OC)c3o2)sc1=S        TK-10 renal         28.8 µM
10  COC12C=C/C(=C(/C(=O)OCc3ccncc3)C(=O)CCCCCCCCC3(OC)C=C/C(=C(/C(=O)OCc4ccncc4)C(=O)CCCCCCCC1)O3)O2        TK-10 renal          1.6 µM

The reported measurements were obtained from PubChem BioAssay (NCI).
